# experimental.target: KCNQ2/3 channels (Homo sapiens, UniProt O43525+O43526)
# measurement.notes: Fluorescence assay using a voltage sensitive dye (fluorimetry)
# protocol.conditions: CHO-K1 cells expressing KCNQ2/3 channels; voltage-sensitive dye; read-out: Fluorimetry EC50/IC50
property.measured: pEC50
Lab note: report pEC50 as minus log10 of the concentration in molar units, number only.

Known pEC50 results, listed for orientation:
> print(dat)
                                   compound  property.measured  numeric.readout
1  CCCc1cc(N2CCOCC2)nc(C)c1C(=O)NCc1ccc(Cl)cc1              pEC50             6.58
2  Cc1nc(N2CCOCC2)cc(C2CC2)c1C(=O)NCc1ccc(Cl)cc1              pEC50             5.85

Enquiry: Look up and state reported pEC50 for CCSc1cc(N2CCOCC2)nc(C)c1C(=O)NCCCC(C)(C)C
Return: 6.50

Enquiry: Check the records and state pEC50 for CCSc1cc(N2CCOC[C@H]2C)nc(C)c1C(=O)NCCCC(C)(C)C
Return: 7.09

Enquiry: Using known records, supply pEC50 for CC(NC(=O)c1sc(N2CCOCC2)nc1C(F)(F)F)c1cccc(OC(F)(F)F)c1 (stereo not drawn)
Return: 5.89

* * *

# experimental.target: KCNQ2/3 channels (Homo sapiens, UniProt O43525+O43526)
# Construct: expressed in transfected cells; host or cells: CHO-K1 cells kept under selection antibiotics
# measurement.notes: Fluorescence assay using a voltage sensitive dye (fluorimetry)
# Format: cell-based
# protocol.conditions: CHO-K1 cells expressing KCNQ2/3 channels; relative to retigabine = 100%; read-out: Fluorimetry % efficacy (retigabine = 100%)
property.measured: Emax (%)
Write it as a number; the unit % goes unstated.

Enquiry: Look up and report measured Emax for this entry: CCOc1cc(N2CCOCC2)nc(C)c1C(=O)NCCCC(C)(C)C
Return: 218

Enquiry: Read off the recorded Emax for CCC(C)c1nc(N2CCOCC2)cnc1C(=O)NCc1ccc(Cl)cc1 (stereo not drawn)
Return: 88

Enquiry: Please list Emax recorded for the compound Cc1nc(N2CCOCC2)cc(C2CC2)c1C(=O)NCc1ccc(Cl)cc1
Return: 178

Enquiry: Annotate the compound CCSc1cc(N2CCOCC2)nc(C)c1C(=O)NCCCC(C)(C)C with its measured Emax.
Return: 241

Enquiry: Identify the reported Emax for the following entry. CC(NC(=O)c1sc(N(C)C2CCOCC2)nc1C(F)(F)F)c1cccc(OC(F)(F)F)c1 (stereo not drawn)
Return: 131

Enquiry: Please report the measured Emax for CN(c1nc(C(F)(F)F)c(C(=O)NCc2ccc(Cl)cc2)s1)C1CCOCC1
Return: 102

Enquiry: Recall and state the measured Emax for Cc1nc(N2CCOCC2)cc(C(C)C)c1C(=O)NCc1ccc(Cl)cc1 .
Return: 180

Enquiry: Consider the compound COc1nc(N2CCOCC2)nc(OC)c1C(=O)NCc1ccc(Cl)cc1 and give its recorded Emax.
Return: 147

Enquiry: Look up Emax of CC(C)c1nc(N2CCOCC2)sc1C(=O)NCc1ccc(Cl)cc1 and report it.
Return: 48

* * *

# experimental.target: KCNQ2/3 channels (Homo sapiens, UniProt O43525+O43526)
# measurement.notes: Fluorescence assay using a voltage sensitive dye (fluorimetry)
# protocol.conditions: CHO-K1 cells expressing KCNQ2/3 channels; voltage-sensitive dye; read-out: Fluorimetry EC50/IC50
property.measured: pEC50
Notebook: values listed as pEC50 are -log10 of the concentration (mol/L).

> print(dat)
                                   compound  numeric.readout
1  CC(C)c1nc(N2CCOCC2)sc1C(=O)NCc1ccc(Cl)cc1             5.90

Enquiry: Could you please provide reported pEC50 for COc1nc(N2CCOCC2)nc(OC)c1C(=O)NCc1ccc(Cl)cc1 ? Thanks!
Return: 6.50

* * *

Parameter pEC50: see the listing below.
# experimental.target: KCNQ2/3 channels (Homo sapiens, UniProt O43525+O43526)
# measurement.notes: Fluorescence assay using a voltage sensitive dye (fluorimetry)
# protocol.conditions: CHO-K1 cells expressing KCNQ2/3 channels; voltage-sensitive dye; read-out: Fluorimetry EC50/IC50
// pEC50 is dimensionless: -log10 of concentration (M)

Sample answers from the record:
> print(dat)
                                   molecule  numeric.readout
1  CCC(C)c1nc(N2CCOCC2)cnc1C(=O)NCc1ccc(Cl)cc1 (stereo not drawn)             6.66
2  CCSc1nc(N2CCOCC2)nc(C)c1C(=O)NCc1ccc(Cl)cc1             6.87
3  CCSc1cc(N2CCOC[C@H]2C)nc(C)c1C(=O)NCc1ccc(Cl)cc1             6.71

Enquiry: Supply recorded pEC50 for CC(C)c1nc(N(C)C2CCOCC2)sc1C(=O)NCc1ccc(Cl)cc1 here.
Return: 5.94

Enquiry: Report measured pEC50; entry is CC(C)c1nc(N2CCOCC2)cnc1C(=O)NCc1ccc(Cl)cc1
Return: 6.32

* * *

# experimental.target: KCNQ2/3 channels (Homo sapiens, UniProt O43525+O43526)
# Construct: expressed in transfected cells; host or cells: CHO-K1 cells kept under selection antibiotics
# measurement.notes: Fluorescence assay using a voltage sensitive dye (fluorimetry)
# Type: cell-based
# protocol.conditions: CHO-K1 cells expressing KCNQ2/3 channels; relative to retigabine = 100%; read-out: Fluorimetry % efficacy (retigabine = 100%)
Reported Emax by item:
I only need the number, in %, no unit after it.

Examples with their reported Emax follow.
> print(dat)
                                   compound  property.measured  unit.symbol  numeric.readout
1  CC(C)c1nc(N(C)CC2CCOCC2)sc1C(=O)NC(C)c1cccc(OC(F)(F)F)c1 (stereo not drawn) [Example 22]               Emax            %               78
2  CCSc1nc(N2CCOCC2)nc(C)c1C(=O)NCc1cccc(F)c1 [Example 10]               Emax            %              165
3  CC(C)c1nc(N(C)C2CCOCC2)sc1C(=O)NC(C)c1cccc(OC(F)(F)F)c1 (stereo not drawn) [Example 9]               Emax            %              104

Enquiry: Retrieve Emax on KCNQ2/3 channels (Homo sapiens, UniProt O43525+O43526); query CCSc1cc(N2CCOC[C@H]2C)nc(C)c1C(=O)NCCCC(C)(C)C [Example 15]
Return: 247

Enquiry: State Emax (KCNQ2/3 channels (Homo sapiens, UniProt O43525+O43526)) of CC(NC(=O)c1sc(N2CCOCC2)nc1C(F)(F)F)c1cccc(OC(F)(F)F)c1 (stereo not drawn) [Example 40] .
Return: 78

Enquiry: Under KCNQ2/3 channels (Homo sapiens, UniProt O43525+O43526): report Emax of CCSc1cc(N2CCOCC2)nc(C)c1C(=O)NCc1ccc(Cl)cc1 [Example 3] .
Return: 171

* * *

# experimental.target: KCNQ2/3 channels (Homo sapiens, UniProt O43525+O43526)
# measurement.notes: Fluorescence assay using a voltage sensitive dye (fluorimetry)
# protocol.conditions: CHO-K1 cells expressing KCNQ2/3 channels; voltage-sensitive dye; read-out: Fluorimetry EC50/IC50
property.measured: pEC50
Please note pEC50 is a logarithmic value: minus log10 of concentration in mol/L. Answer with that number alone.

> print(dat)
                                   compound  numeric.readout
1  CCSc1cc(N2CCOCC2)nc(C)c1C(=O)NCc1ccc(F)cc1 [Example 12]             5.83
2  CC(C)c1nc(N(C)CC2CCOCC2)sc1C(=O)NC(C)c1cccc(OC(F)(F)F)c1 (stereo not shown) [Example 22]             6.34
3  Cc1nc(N2CCOCC2)cc(C(C)C)c1C(=O)NCc1ccc(Cl)cc1 [Example 17]             6.30

Turning to the following compound.
Enquiry: Quick one: give measured pEC50 for CN(c1nc(C(F)(F)F)c(C(=O)NCc2ccc(Cl)cc2)s1)C1CCOCC1 [Example 38]
Return: 5.90

* * *

# experimental.target: KCNQ2/3 channels (Homo sapiens, UniProt O43525+O43526)
# measurement.notes: Fluorescence assay using a voltage sensitive dye (fluorimetry)
# protocol.conditions: CHO-K1 cells expressing KCNQ2/3 channels; voltage-sensitive dye; read-out: Fluorimetry EC50/IC50
property.measured: EC50 (nM)
Lab book: enter the figure in nM, no units written.

> print(dat)
                                   compound  numeric.readout
1  CCC(C)c1nc(N2CCOCC2)cnc1C(=O)NCCC1CCCC1 (stereo not drawn)             1050

Enquiry: Supply reported EC50 belonging to this compound: CCOc1cc(N2CCOCC2)nc(C)c1C(=O)NCCCC(C)(C)C
Return: 1350

Enquiry: # return recorded EC50 for entry CC(C)c1nc(N(C)C2CCOCC2)sc1C(=O)NC(C)c1cccc(OC(F)(F)F)c1 (stereo not drawn)
Return: 379
